Biological target: T1, human IL-6 (mature hIL-6) (human, UniProt P05231 30-212)
T1 construct: also called the antigen
T1 sequence (P05231 30-212): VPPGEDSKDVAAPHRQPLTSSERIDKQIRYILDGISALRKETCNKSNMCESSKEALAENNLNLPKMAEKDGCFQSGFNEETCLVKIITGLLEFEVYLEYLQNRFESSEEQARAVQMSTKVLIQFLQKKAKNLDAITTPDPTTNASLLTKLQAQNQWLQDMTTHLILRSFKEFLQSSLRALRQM
Assay: SPR (format not stated)
Listed binders paired with reported Kd
Express your answer in nM, writing the number without its unit.

BINDER	MEASUREMENT_UNIT	Kd
Polypeptide_12 (VHH, VHH_2.12 with C-terminal His tag extension E1; also called [VHH_2.12]-E1) VHH: QVQLVESGGGLVQAGGSLRLSCTTSGRTFSSYAMAWFRQAPGKDREFVADIGENSDNIWYADSVKGRFTISRDNAKNTILLQMNSLKPEDTAVYYCAADSYGVGGGKPEYYDSWGQGAQVTVSS	nM	0.001

Sure, the documented Kd for Polypeptide_10 (VHH, VHH_2.10 with C-terminal His tag extension E1; also called [VHH_2.10]-E1) VHH: QVQLQESGGGLVQAGGSLRLSCTVSGRTFSTYAMGWFRQAPGKEREFVADINWNSDNIWYADSVKGRFTISRDNAKNVMYLQMNSLKPEDTAVYYCAADSYGVGGGKEEYYDSWGQGTQVTVSS is 1.03

Each recorded value in this set is attributed to patent US20250333496A1.
